- System: mouse leukemia cells L1210
- measurement protocol: Antitumor activity against mouse leukemia L1210, intraperitoneal administration
- experimental context: mouse, in vivo, ip
The entries below come with measured Therapeutic index (ILS max./ILS30) values attached.
Would you mind answering with just the numeric figure?

# lookup: Therapeutic index (ILS max./ILS30) of O=C(O)CCCCC(=O)OC[C@H]1O[C@@H](n2cc(F)c(=O)[nH]c2=O)C[C@@H]1OC(=O)CCCCC(=O)O 20.0

What measured Therapeutic index (ILS max./ILS30) goes with CCCCCC(=O)OC[C@H]1O[C@@H](n2cc(F)c(=O)[nH]c2=O)C[C@@H]1OC(=O)CCCCC [reference compound] ? 4.3

Need Therapeutic index (ILS max./ILS30) of CCCCCCCCCCCCCCCC(=O)OC[C@H]1O[C@@H](n2cc(F)c(=O)[nH]c2=O)C[C@@H]1OC(=O)CCCCCCCCCCCCCCC [reference compound] , thanks. 5.0

Can you look up the measured Therapeutic index (ILS max./ILS30) of CCCCCCCCCC(=O)OC[C@H]1O[C@@H](n2cc(F)c(=O)[nH]c2=O)C[C@@H]1OC(=O)CCCCCCCCC for me? 10.0

Tell me the measured Therapeutic index (ILS max./ILS30) of CCCCCCCCCCCC(=O)OC[C@H]1O[C@@H](n2cc(F)c(=O)[nH]c2=O)C[C@@H]1OC(=O)CCCCCCCCCCC , please. 45.0

----------
- measurement protocol: Rate of hydrolysis of 5-fluoro-2'-deoxyuridine derivatives by esterase
- Assay type: in vitro ADME, porcine
- experimental context: pig, liver esterase, pH 7, enzyme concentration 0.75 units/ml, pH 7.00, 37° C.; read-out: t 1/2 (time for 1/2 of the derivative to be converted into parent compound)
measured quantity: half-life (min)
Hi! Could you send only the number? It should be in min, unit omitted.

Any idea what half-life was measured for CCCC(=O)OC[C@H]1O[C@@H](n2cc(F)c(=O)[nH]c2=O)C[C@@H]1OC(=O)CCC ? 42.4

----------
- measurement protocol: Change in body weight of L1210-bearing mice, oral administration
- Type: in vivo, BDF1 mice
- experimental context: dose 300 mg/kg/day, days 1-4
- Protocol: The respective agents were administered orally three times, i.e. on the first day, third day, and fifth day, starting 24 hours after the implantation of tumor cells.
Entries and their measured Change in body weight (1-4 d, g/mouse) follow.
Please reply with the bare figure in g/mouse and do not write the unit itself.

Record request: Change in body weight (1-4 d, g/mouse) value, item CCCCCCCCCC(=O)OC[C@H]1O[C@@H](n2cc(F)c(=O)[nH]c2=O)C[C@@H]1OC(=O)CCCCCCCCC -3.8

I have this compound here, O=c1[nH]c(=O)n([C@H]2C[C@H](O)[C@@H](CO)O2)cc1F [5-fluoro-2'-deoxyuridine] , and I need its recorded Change in body weight (1-4 d, g/mouse). -5.2

Entry under review: CCCCCCCCCCCC(=O)OC[C@H]1O[C@@H](n2cc(F)c(=O)[nH]c2=O)C[C@@H]1OC(=O)CCCCCCCCCCC . Reported Change in body weight (1-4 d, g/mouse)? -2.6

Requested read-out: Change in body weight (1-4 d, g/mouse). Entry: CCCCCCCC(=O)OC[C@H]1O[C@@H](n2cc(F)c(=O)[nH]c2=O)C[C@@H]1OC(=O)CCCCCCC [reference compound] -2.2
